Biological target: Human immunodeficiency virus type 1 protease (Human immunodeficiency virus 1) (UniProt Q72874)
Test: Anti-HIV-1 activity against mutant HIV-1 in MT-4 cells (mutation selected with compound 1)
Type: functional, cell-based
Details: MT4
API: label(entry) gives Y if the entry's ED50 is strictly smaller than 2000 nM; on equality or larger values it gives N.

Known results for molecules:
# Molecule, Assigned Class
rows = [
    ("CNC(=O)[C@@H](NC(=O)[C@H](OCc1ccc(F)cc1F)[C@H](O)[C@@H](O)[C@@H](OCc1ccc(F)cc1F)C(=O)N[C@H](C(=O)NC)C(C)C)C(C)C", "N"),
    ("O=C(NC1c2ccccc2C[C@H]1O)[C@H](OCc1ccc(F)cc1F)[C@H](O)[C@@H](O)[C@@H](OCc1ccc(F)cc1F)C(=O)N[C@H]1c2ccccc2C[C@H]1O (stereo partly specified)", "Y"),
    ("O=C(NC1c2ccccc2C[C@H]1O)[C@H](OCc1ccc(F)c(F)c1)[C@H](O)[C@@H](O)[C@@H](OCc1ccc(F)c(F)c1)C(=O)N[C@H]1c2ccccc2C[C@H]1O (stereo partly specified)", "Y"),
    ("CNC(=O)[C@@H](NC(=O)[C@H](OCc1cccc(F)c1)[C@H](O)[C@@H](O)[C@@H](OCc1cccc(F)c1)C(=O)N[C@H](C(=O)NC)C(C)C)C(C)C", "Y"),
    ("CNC(=O)[C@@H](NC(=O)[C@H](OCc1cc(F)ccc1F)[C@H](O)[C@@H](O)[C@@H](OCc1cc(F)ccc1F)C(=O)N[C@H](C(=O)NC)C(C)C)C(C)C", "N"),
]

Please examine the following record next.
Input O=C(NC1c2ccccc2C[C@H]1O)[C@H](OCc1cccc(F)c1F)[C@H](O)[C@@H](O)[C@@H](OCc1cccc(F)c1F)C(=O)N[C@H]1c2ccccc2C[C@H]1O (stereo partly specified) ; condition: ED50 strictly below 2000 nM. Does it hold?
Y

====

Molecular target: Human immunodeficiency virus type 1 protease (Human immunodeficiency virus 1, UniProt Q72874)
Measurement Name: pKi
# pKi: negative log10 of molar concentration; output just the value

# Compound, Result
data = [
    ("O=C(NC1c2ccccc2C[C@H]1O)[C@H](OCc1cc(F)ccc1F)[C@H](O)[C@@H](O)[C@@H](OCc1cc(F)ccc1F)C(=O)N[C@H]1c2ccccc2C[C@H]1O (stereo partly specified)", 8.48),
    ("CNC(=O)[C@@H](NC(=O)[C@H](OCc1cc(F)cc(F)c1)[C@H](O)[C@@H](O)[C@@H](OCc1cc(F)cc(F)c1)C(=O)N[C@H](C(=O)NC)C(C)C)C(C)C", 8.70),
    ("CNC(=O)[C@@H](NC(=O)[C@H](OCc1cc(F)ccc1F)[C@H](O)[C@@H](O)[C@@H](OCc1cc(F)ccc1F)C(=O)N[C@H](C(=O)NC)C(C)C)C(C)C", 8.70),
    ("O=C(NC1c2ccccc2C[C@H]1O)[C@H](OCc1cccc(F)c1F)[C@H](O)[C@@H](O)[C@@H](OCc1cccc(F)c1F)C(=O)N[C@H]1c2ccccc2C[C@H]1O (stereo partly specified)", 8.40),
    ("CNC(=O)[C@@H](NC(=O)[C@H](OCc1ccc(F)c(F)c1)[C@H](O)[C@@H](O)[C@@H](OCc1ccc(F)c(F)c1)C(=O)N[C@H](C(=O)NC)C(C)C)C(C)C", 8.70),
]

Now for the compound whose pKi we want.
Given the compound O=C(NC1c2ccccc2C[C@H]1O)[C@H](OCc1ccccc1)[C@H](O)[C@@H](O)[C@@H](OCc1ccccc1)C(=O)N[C@H]1c2ccccc2C[C@H]1O (stereo partly specified) , what is its reported pKi?
8.91
